biological target: Adeno-associated virus serotype 9 (AAV9) (AAV9); assay: SPR, AAV amine-coupled to CM5 chip, nanobody 1-50 nM as analyte
// returns criterion not met unless Kd is strictly below 800 pM, in which case criterion met

binder	groupLabel
A4-M2 (A4-017 with an N-terminal methionine) (VHH) VHH: QVQLQESGGGLVQPGGSLRLSCAASGSIFSINLMGWYRQAPGKQRELVATITRGGNTNYAGSVKGRFTISRDNAKNTVYLQMNSLRPEDTAVYYCHVDEVRQSSWTTSNLWGQGTQVTVSS	criterion not met
A4-T2 (A4-017 with a C-terminal GGGGS linker followed by a 6xHis tag) (VHH) VHH: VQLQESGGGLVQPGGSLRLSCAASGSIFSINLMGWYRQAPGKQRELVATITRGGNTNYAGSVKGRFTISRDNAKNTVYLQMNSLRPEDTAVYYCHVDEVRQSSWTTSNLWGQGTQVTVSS	criterion met
A4-T1 (A4-017 with a C-terminal 6xHis tag) (VHH) VHH: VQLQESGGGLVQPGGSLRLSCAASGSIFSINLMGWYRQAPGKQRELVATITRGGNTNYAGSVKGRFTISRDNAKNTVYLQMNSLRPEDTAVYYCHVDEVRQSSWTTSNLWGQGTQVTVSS	criterion met
